EXPERIMENT NOTES: Distribution coefficient LogD
Type: physicochemical
TEST CONDITIONS: pH 7.4
Listing: logD of selected compounds
Form: value (number only, do not type unit).

Some compounds with recorded logD:
> print(dat)
                                   compound  readout.value
1            COC1=C(N2CC2)C(=O)c2ccccc2C1=O           0.31
2  CC1CN1C1=C(Cl)C(=O)c2ccccc2C1=O (stereo not drawn)            0.7

logD recorded for this compound, CC1=C(N2CC2)C(=O)c2ccccc2C1=O , is 0.12

----------
ASSAYED TARGET: human GAPDH enzyme (Homo sapiens)
Construct: endogenous in cells; host or cells: MIA PaCa-2 cells
Sequence (P04406 whole entry): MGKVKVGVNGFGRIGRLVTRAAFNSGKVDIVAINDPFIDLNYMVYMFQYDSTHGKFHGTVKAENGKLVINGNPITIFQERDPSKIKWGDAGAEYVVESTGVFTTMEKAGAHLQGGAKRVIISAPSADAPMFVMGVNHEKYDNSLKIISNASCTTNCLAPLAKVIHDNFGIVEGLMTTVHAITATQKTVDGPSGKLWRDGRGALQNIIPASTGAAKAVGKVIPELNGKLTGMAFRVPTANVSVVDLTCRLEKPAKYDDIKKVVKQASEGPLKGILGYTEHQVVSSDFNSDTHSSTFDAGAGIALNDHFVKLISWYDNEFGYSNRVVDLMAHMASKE
EXPERIMENT NOTES: GAPDH activity assay in MIA PaCa-2 cells
Format: cell-based
TEST CONDITIONS: 2 h, read-out: GAPDH, enzyme residual activity as compared to DMSO-treated sample
Listing: remaining activity at 30 µM of selected molecules

Some molecules with recorded remaining activity at 30 µM:
> print(dat)
                                    molecule                     assayed.target  readout.value
 1  CC1CN1C1=C(Cl)C(=O)c2ccccc2C1=O (centres unmarked)  human GAPDH enzyme (Homo sapiens)           100%
 2            COCCNC1=C(Cl)C(=O)c2ccccc2C1=O  human GAPDH enzyme (Homo sapiens)           100%
 3       O=C1C(Cl)=C(Nc2nccs2)C(=O)c2ccccc21  human GAPDH enzyme (Homo sapiens)           100%
 4        CC(C)(C)NC1=C(Cl)C(=O)c2ccccc2C1=O  human GAPDH enzyme (Homo sapiens)           100%
 5        CCCCOCCCNC1=C(Cl)C(=O)c2ccccc2C1=O  human GAPDH enzyme (Homo sapiens)            94%
 6    O=C1C(Cl)=C(NCCc2ccccc2)C(=O)c2ccccc21  human GAPDH enzyme (Homo sapiens)            97%
 7       CCCCC(=O)NC1=C(Cl)C(=O)c2ccccc2C1=O  human GAPDH enzyme (Homo sapiens)             3%
 8        CCCC(=O)NC1=C(Cl)C(=O)c2ccccc2C1=O  human GAPDH enzyme (Homo sapiens)             5%
 9  O=C1C(Nc2ccccc2)=CC(=O)c2ncccc21 [compound 67, reference compound]  human GAPDH enzyme (Homo sapiens)            76%
10                NC1=C(Cl)C(=O)c2ccccc2C1=O  human GAPDH enzyme (Homo sapiens)           100%

Per the reported human GAPDH enzyme (Homo sapiens) data, Cc1ccccc1NC1=C(Cl)C(=O)c2ccccc2C1=O has remaining activity at 30 µM of 88%

Per the reported human GAPDH enzyme (Homo sapiens) data, O=C1C(Cl)=C(Nc2ccccc2)C(=O)c2ccccc21 has remaining activity at 30 µM of 93%

Per the reported human GAPDH enzyme (Homo sapiens) data, CCNC1=C(Cl)C(=O)c2ccccc2C1=O has remaining activity at 30 µM of 100%

----------
Listing: inhibition at 30 µM of selected compounds
ASSAYED TARGET: human GSR enzyme (recombinant GSR) (Homo sapiens)
Construct: made in house; host or cells: E. coli BL21(DE3)
EXPERIMENT NOTES: Glutathione reductase (GSR) activity assay
Assay type: biochemical
TEST CONDITIONS: read-out: GSR-inhibiting activity
Value expressed in %; do not type the unit.

Some compounds with recorded inhibition at 30 µM:
> print(dat)
                                   compound  readout.value
1  CC1=C(N2CC2)C(=O)c2ccccc2C1=O [compound 55]             17
2  CCCCC(=O)NC1=C(Cl)C(=O)c2ccccc2C1=O [compound 32]             99
3  CCCCCCCNC1=C(Cl)C(=O)c2ccccc2C1=O [compound 8]              7

Read the next record carefully.
inhibition at 30 µM recorded for this compound, NC1=C(Cl)C(=O)c2ccccc2C1=O [compound 1, 2-chloro-3-amino-1,4-NQ] , is 67

----------
EXPERIMENT NOTES: Distribution coefficient LogD
Format: physicochemical
TEST CONDITIONS: octanol/water, pH 7.4; read-out: LogD, pH = 7.4
Classify: Y when logD is strictly less than 0.1; N when logD is not.

> print(dat)
                                   molecule  cat
1  CCCCOCCCNC1=C(Cl)C(=O)c2ccccc2C1=O [compound 26]    Y
2  O=C1C(Cl)=C(NCCc2ccccc2)C(=O)c2ccccc21 [compound 36]    Y
3    CCNC1=CC(=O)c2ncccc2C1=O [compound 66]    N

Dear reviewer, please state whether CCNC1=C(Cl)C(=O)c2ccccc2C1=O [compound 3] has logD strictly beneath 0.1.
N

Dear reviewer, please state whether O=C1C(Cl)=C(NCCO)C(=O)c2ccccc21 [compound 17] has logD strictly beneath 0.1.
N

Dear reviewer, please state whether O=C1C(Cl)=C(Nc2ccccc2)C(=O)c2ccccc21 [compound 39] has logD strictly beneath 0.1.
N

Dear reviewer, please state whether COC1=C(N(C)C)C(=O)c2ccccc2C1=O [compound 53] has logD strictly beneath 0.1.
Y

----------
System: primary acute myeloid leukemia (AML) cells obtained from patients
EXPERIMENT NOTES: Kinase inhibitor library screening with and without NSC130362, primary AML cells
Format: cell-based, Human
TEST CONDITIONS: ratio of EC50 for inhibitor to EC50 for inhibitor/NSC130362 combination; NSC130362 10 μM; Screen N 3
Classify: Fulfilled when EC50 decrease, fold (Screen N 3) is strictly less than 0.8 fold; Not fulfilled when EC50 decrease, fold (Screen N 3) is not.

> print(dat)
                                   compound            cat
1  Cc1ccccc1C(C(=O)NC1CCCCC1)N(C(=O)Cn1ccnc1C)c1cccc(F)c1 (centres unmarked)      Fulfilled
2  CCCCCNC(=O)N1CCC(CN(Cc2ccc(Cl)cc2)Cc2ccc([N+](=O)[O-])s2)C1 (centres unmarked)  Not fulfilled
3  COc1cc(N2CCC(N3CCN(C)CC3)CC2)ccc1Nc1ncc(Cl)c(Nc2ccccc2S(=O)(=O)C(C)C)n1      Fulfilled
4  COc1cc2c(Oc3ccc4[nH]c(C)cc4c3F)ncnc2cc1OCCCN1CCCC1      Fulfilled

Dear reviewer, please state whether COc1c(Cl)cc2c([nH]c3cnccc32)c1NC(=O)c1cccnc1C [MLN120B] has EC50 decrease, fold (Screen N 3) strictly beneath 0.8 fold.
Not fulfilled

Dear reviewer, please state whether CC(C)(C)c1ccc(S(=O)(=O)/C=C/C#N)cc1 has EC50 decrease, fold (Screen N 3) strictly beneath 0.8 fold.
Not fulfilled

Dear reviewer, please state whether CSc1cccc(Nc2ncc3cc(-c4c(Cl)cccc4Cl)c(=O)n(C)c3n2)c1 has EC50 decrease, fold (Screen N 3) strictly beneath 0.8 fold.
Not fulfilled

Dear reviewer, please state whether COc1cc(Nc2c(C#N)cnc3cc(OCCCN4CCN(C)CC4)c(OC)cc23)c(Cl)cc1Cl [Bosutinib (SKI-606)] has EC50 decrease, fold (Screen N 3) strictly beneath 0.8 fold.
Not fulfilled

----------
Listing: remaining activity at 30 µM of selected molecules
ASSAYED TARGET: human GSR enzyme (recombinant GSR) (Homo sapiens)
Construct: made in house; host or cells: E. coli BL21(DE3)
Sequence (P00390 44-522): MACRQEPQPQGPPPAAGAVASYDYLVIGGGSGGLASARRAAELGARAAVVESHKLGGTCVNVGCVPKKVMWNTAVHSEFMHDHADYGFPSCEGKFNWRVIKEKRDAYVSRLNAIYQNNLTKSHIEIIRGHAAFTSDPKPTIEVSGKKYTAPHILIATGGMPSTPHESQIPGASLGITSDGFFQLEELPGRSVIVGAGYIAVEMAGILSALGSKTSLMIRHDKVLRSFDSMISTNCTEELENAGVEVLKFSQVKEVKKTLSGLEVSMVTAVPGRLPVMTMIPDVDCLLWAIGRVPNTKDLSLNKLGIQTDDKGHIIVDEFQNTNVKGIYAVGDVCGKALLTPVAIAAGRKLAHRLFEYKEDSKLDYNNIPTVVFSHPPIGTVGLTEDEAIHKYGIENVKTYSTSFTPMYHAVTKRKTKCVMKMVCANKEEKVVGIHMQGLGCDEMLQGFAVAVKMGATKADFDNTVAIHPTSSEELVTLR
EXPERIMENT NOTES: Glutathione reductase (GSR) activity assay
Assay type: biochemical
TEST CONDITIONS: 2 h at 25°C, read-out: GSR, enzyme residual activity as compared to DMSO-treated sample

> print(dat)
                             cpd.smiles  readout.value
1        COCCNC1=C(Cl)C(=O)c2ccccc2C1=O            65%
2  O=C1C(Cl)=C(Nc2ccccc2)C(=O)c2ccccc21            92%
3         CC1=C(N2CC2)C(=O)c2ccccc2C1=O            83%

remaining activity at 30 µM recorded for this molecule, CC(C)(C)NC1=C(Cl)C(=O)c2ccccc2C1=O , is 45%
